tested on: Plasmodium berghei; assay: Luciferase/luciferin-expressing antifolate-resistant parasites were used to infect a culture of HepG2 cells that were pre-incubated with compounds. Infected hepatocytes emit light due to the luciferase reaction. Assay results are presented as the percent inhibition of light emission compared to control. […]; assay type: functional; conditions: sporozoite, read-out: LUCIFERASE INFECTION ASSAY - IC90
Measured IC90, listed per entry for reference.
readout.kind: IC90

{"compound": "Cc1nnnn1/C(=C\\c1ccccc1)C(=O)N1CCCC1c1nc2ccccc2s1 (stereo not drawn)", "reading": "> 10 µM"}
{"compound": "COCCCN1C(=O)N(Cc2ccccc2)C(=O)C12CCN(CCC(C)c1ccc(C)o1)CC2 (stereo not drawn)", "reading": "> 7.06 µM"}
{"compound": "CCCCCCN(C(=O)Cn1ccsc1=N)c1nc(-c2ccccc2)cs1", "reading": "> 10 µM"}

* * *

system: Plasmodium berghei; assay: Luciferase/luciferin-expressing antifolate-resistant parasites were used to infect a culture of HepG2 cells that were pre-incubated with compounds. Infected hepatocytes emit light due to the luciferase reaction. Assay results are presented as the percent inhibition of light emission compared to control. […]; type: functional; details: sporozoite, read-out: LUCIFERASE INFECTION ASSAY - IC90
readout.kind: IC90

{"molecule": "Cc1nc(N/N=C/c2ccc(O)cc2)c2cnn(-c3ccccc3)c2n1", "readout.kind": "IC90", "reading": "> 10 µM"}
{"molecule": "CN(CC(=O)Nc1ccc(Cl)c(S(=O)(=O)N2CCOCC2)c1)C(=O)C1CCCO1 (stereo not drawn)", "readout.kind": "IC90", "reading": "> 10 µM"}
{"molecule": "Cc1ccc(-c2nn(-c3ncc(Cl)cc3Cl)c(=O)c3ccccc23)cc1", "readout.kind": "IC90", "reading": "> 10 µM"}

* * *

tested on: Plasmodium berghei; assay: Luciferase/luciferin-expressing antifolate-resistant parasites were used to infect a culture of HepG2 cells that were pre-incubated with compounds. Infected hepatocytes emit light due to the luciferase reaction. Assay results are presented as the percent inhibition of light emission compared to control. […]; format: functional; conditions: sporozoite, read-out: LUCIFERASE INFECTION ASSAY - IC90
Measured IC90, listed per entry for reference.
readout.kind: IC90

{"molecule.smiles": "COc1ccnc(Nc2ccc3c(c2)nc2n3CCCCC2)n1", "target.entity": "Plasmodium berghei", "reading": "2.84 µM"}
{"molecule.smiles": "N#Cc1cccc(CSc2nc(NC3CC3)c3ccccc3n2)c1", "target.entity": "Plasmodium berghei", "reading": "> 10 µM"}
{"molecule.smiles": "CCO/C=N/Nc1nc(C(F)(F)F)nc2c1cnn2-c1ccccc1", "target.entity": "Plasmodium berghei", "reading": "> 10 µM"}
{"molecule.smiles": "C/C(=N\\NC(=S)Nc1cccc(C(F)(F)F)c1)c1cc(Cl)ccc1O", "target.entity": "Plasmodium berghei", "reading": "> 8.51 µM"}
{"molecule.smiles": "CCCn1c(NC(=O)CCN(c2ccc(C)cc2)S(=O)(=O)c2ccc(C)cc2)nc2ccccc21", "target.entity": "Plasmodium berghei", "reading": "> 10 µM"}
{"molecule.smiles": "CCN(C(S)=Nc1cccnc1)c1cccc2ccccc12", "target.entity": "Plasmodium berghei", "reading": "> 10 µM"}
{"molecule.smiles": "Clc1ccc2c(N(Cc3ccco3)Cc3cccs3)ncnc2c1", "target.entity": "Plasmodium berghei", "reading": "> 10 µM"}
{"molecule.smiles": "O=C(COc1cc(N2CCCC2=O)ccc1[N+](=O)[O-])NCc1ccco1", "target.entity": "Plasmodium berghei", "reading": "> 10 µM"}

* * *

tested on: Plasmodium berghei; assay: Luciferase/luciferin-expressing antifolate-resistant parasites were used to infect a culture of HepG2 cells that were pre-incubated with compounds. Infected hepatocytes emit light due to the luciferase reaction. Assay results are presented as the percent inhibition of light emission compared to control. […]; assay type: functional; conditions: sporozoite, read-out: LUCIFERASE INFECTION ASSAY - IC50
pIC50: −log10 of the molar value.
Measured pIC50, listed per entry for reference.

{"compound": "CC1=NN(c2ccc(C)c(Cl)c2)C(=O)/C1=C\\c1ccc2c(c1)OCO2", "pIC50": "< 5.03"}
{"compound": "O=C(Cc1ccsc1)NNC(=O)c1cccc(S(=O)(=O)Nc2cccc(C(F)(F)F)c2)c1", "pIC50": "< 5.00"}
{"compound": "CC1CCCC(NC(=O)CSc2nnc(O)n2Cc2ccccc2)C1C (stereo not given)", "pIC50": "< 5.00"}
{"compound": "CN1C(=O)/C(=C\\c2ccccc2[N+](=O)[O-])c2ccccc21", "pIC50": 5.03}
{"compound": "Cc1nc(Nc2ccc(Cl)cc2)sc1C(=O)Nc1ccccc1", "pIC50": "< 5.00"}

* * *

Measured IC90, listed per entry for reference.
tested on: Plasmodium berghei; experiment: Luciferase/luciferin-expressing antifolate-resistant parasites were used to infect a culture of HepG2 cells that were pre-incubated with compounds. Infected hepatocytes emit light due to the luciferase reaction. Assay results are presented as the percent inhibition of light emission compared to control. […]; assay type: functional; settings: sporozoite, read-out: LUCIFERASE INFECTION ASSAY - IC90
readout.kind: IC90

{"molecule": "C[C@H](NC(=O)[C@@H]1CSC2c3ccccc3C(=O)N21)C(=O)NC1CCCCC1 (stereo partly drawn)", "target.entity": "Plasmodium berghei", "readout.kind": "IC90", "reading": "> 8.52 µM"}
{"molecule": "CCOc1cccc(-c2cn3c(-c4ccc(C(=O)N5CCN(C)CC5)cc4)cnc3cn2)c1", "target.entity": "Plasmodium berghei", "readout.kind": "IC90", "reading": "7.28 µM"}
{"molecule": "Cc1nc(CCNC(=O)Cc2cn(-c3ccccc3)nc2-c2ccc(Cl)cc2)cs1", "target.entity": "Plasmodium berghei", "readout.kind": "IC90", "reading": "> 10 µM"}
{"molecule": "CC(=C(C#N)C#N)c1ccc(Cl)cc1", "target.entity": "Plasmodium berghei", "readout.kind": "IC90", "reading": "> 16.3 µM"}
{"molecule": "CS(=O)(=O)c1ccc(Nc2cc3[nH]c(-c4cccc(C(F)(F)F)c4)cc3cn2)cc1", "target.entity": "Plasmodium berghei", "readout.kind": "IC90", "reading": "9.79 µM"}
{"molecule": "Cc1cc(NC(=O)c2ccc(CSCc3c(Cl)cccc3Cl)cc2)no1", "target.entity": "Plasmodium berghei", "readout.kind": "IC90", "reading": "1.31 µM"}
{"molecule": "CCN(CC)Cc1nc(N2CCN(Cc3c(C)nc4ccc(C)cn34)CC2)c2c(C)c(C)sc2n1", "target.entity": "Plasmodium berghei", "readout.kind": "IC90", "reading": "> 10 µM"}
{"molecule": "Oc1ccc(-c2cn3c(-c4ccsc4)cnc3cn2)cc1", "target.entity": "Plasmodium berghei", "readout.kind": "IC90", "reading": "> 11.2 µM"}

* * *

Measured IC90, listed per entry for reference.
test system: Plasmodium berghei; test: Luciferase/luciferin-expressing antifolate-resistant parasites were used to infect a culture of HepG2 cells that were pre-incubated with compounds. Infected hepatocytes emit light due to the luciferase reaction. Assay results are presented as the percent inhibition of light emission compared to control. […]; assay type: functional; settings: sporozoite, read-out: LUCIFERASE INFECTION ASSAY - IC90
readout.kind: IC90

{"molecule.smiles": "CCCCn1nc(C(=O)NNC(=O)Nc2ccc([N+](=O)[O-])cc2)c2ccccc2c1=O", "target.entity": "Plasmodium berghei", "reading": "> 10 µM"}
{"molecule.smiles": "CCOc1ccc(C(=O)Nc2nc3ccccn3c2C(=O)NC(C)C)cc1", "target.entity": "Plasmodium berghei", "reading": "8.41 µM"}
{"molecule.smiles": "COc1ccc(-n2nc(C)c3c(O)c4c(nc32)CCCC4)cc1", "target.entity": "Plasmodium berghei", "reading": "> 10.7 µM"}
{"molecule.smiles": "O=S(=O)(c1ccc(-c2cc(-c3ccccc3Cl)c3cc(Cl)ccc3n2)cc1)N1CCCCC1", "target.entity": "Plasmodium berghei", "reading": "> 10 µM"}
{"molecule.smiles": "O=[N+]([O-])c1cc(/C=C/c2nc3ccccc3s2)ccc1N1CCOCC1", "target.entity": "Plasmodium berghei", "reading": "> 10 µM"}

* * *

system: Plasmodium berghei; experiment: Luciferase/luciferin-expressing antifolate-resistant parasites were used to infect a culture of HepG2 cells that were pre-incubated with compounds. Infected hepatocytes emit light due to the luciferase reaction. Assay results are presented as the percent inhibition of light emission compared to control. […]; type: functional; settings: sporozoite, read-out: LUCIFERASE INFECTION ASSAY - IC90

{"compound": "COc1ccc(-c2nc3c(c(SCCN4CCCC4)n2)COC(C)(C)C3)cc1", "target.entity": "Plasmodium berghei", "IC90": "> 8.26 µM"}
{"compound": "CCOC(=O)C1=C(CSc2nc(-c3ccc(C)cc3)c(-c3ccc(C)cc3)[nH]2)NC(=O)NC1C (stereo not drawn)", "target.entity": "Plasmodium berghei", "IC90": "> 10 µM"}
{"compound": "O=C(Nc1nc2ccc([N+](=O)[O-])cc2s1)c1cccc(Cl)c1", "target.entity": "Plasmodium berghei", "IC90": "> 10 µM"}
